Provide the recorded CellTox Green cytotoxicity fluorescence for the entries that follow.
System: Kasumi-1
Experiment: CellTox Green cytotoxicity fluorescence relative to DMSO vehicle (fold of vehicle RFU); higher = more cell death (loss of membrane integrity), active = 2 or more
Details: 0.1 µM; 72 h
Structures can show the parent of a compound that is named as a salt.
Give bare numbers.

Molecule	System Under Test	Experimental Endpoint	Reported Value
Nc1ccccc1NC(=O)c1cnccn1	Kasumi-1	CellTox Green cytotoxicity fluorescence	0.988

Go through the items and report each one's CellTox Green cytotoxicity fluorescence.
1. COc1c/c(=C2\C=c3ccccc3=N2)[nH]/c1=C\c1[nH]c(C)cc1C [Obatoclax Mesylate]
2. CCCCNc1ncc2c(-c3ccc(CN4CCN(C)CC4)cc3)cn([C@H]3CC[C@H](O)CC3)c2n1
3. Cn1cc(-c2ccc3c(c2)CCN3C(=O)Cc2cccc(C(F)(F)F)c2)c2c(N)ncnc21
4. CCC(CC)n1ccc2c(C(=O)NCc3c(C)cc(C)[nH]c3=O)cc(C#N)cc21

**Result**
1.05
1.32
1.07
0.925
